Target: T1, human IFNAR-1 on cells (human, UniProt P17181 28-557)
T1 sequence (looked up): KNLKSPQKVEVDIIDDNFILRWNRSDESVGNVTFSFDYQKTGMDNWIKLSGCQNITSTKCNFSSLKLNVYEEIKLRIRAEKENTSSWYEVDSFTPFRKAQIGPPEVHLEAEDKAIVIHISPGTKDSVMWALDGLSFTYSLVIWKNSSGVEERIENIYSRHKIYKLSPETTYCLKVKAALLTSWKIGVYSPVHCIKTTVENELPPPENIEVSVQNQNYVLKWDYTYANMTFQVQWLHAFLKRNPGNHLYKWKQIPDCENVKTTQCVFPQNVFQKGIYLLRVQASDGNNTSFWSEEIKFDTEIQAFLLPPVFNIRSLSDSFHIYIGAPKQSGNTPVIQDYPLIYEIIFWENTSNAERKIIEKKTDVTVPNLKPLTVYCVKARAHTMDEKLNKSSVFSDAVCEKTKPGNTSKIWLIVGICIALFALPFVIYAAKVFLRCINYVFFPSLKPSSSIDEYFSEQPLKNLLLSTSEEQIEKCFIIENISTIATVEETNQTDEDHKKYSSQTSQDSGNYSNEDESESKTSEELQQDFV
Test: cell-based or functional assay
value_type: EC50 (nM), inhibition of IFNα2b-induced SEAP reporter in HEK-Blue IFNα/β cells

binder	value_measured
8G11 (antibody, V domains shown, Hybridoma-derived monoclonal antibody; also called mouse antibody 8G11) VH: EVQLQQSGAELVKPGASVKLSCTGFGFNIKDYYMHWVKQRAEQGLEWIGRIDPEDGETKYAPKFQGKATITADTSSNTAYLQVSSLTSEDTAVYYCARGGNFYVMDYWGQGTSVTVSS VL: DIVMTQSQKFMSTSVGDRVSVTCKASQNVGTNVVWYQQKPGQSPKVLIYSASYRVSGVPDRFTGSGSGTDFTLIISNVQSEDLAEYFCQQKNNYPYTFGGGTKLEIK	0.465

Origin of measurements: patent US20200399381A1
